Where do the numbers come from? From paper PMC9482650.

assayed.target: T1, TJP3_3, O95049
T1 sequence (O95049 375-456, limits assumed, looked up): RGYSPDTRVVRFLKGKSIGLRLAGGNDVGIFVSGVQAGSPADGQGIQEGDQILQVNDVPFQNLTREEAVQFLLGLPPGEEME
assay.explanation: holdup assay
Set-up: key: below the threshold = too weak to quantify, mostly under pKd 3.1 to 4
assay.setup: plain residues with an end cap or a label only (N-terminal biotin on a linker: ado-ado)
observation.type: pKd

Sample records with pKd:
binder	pKd
SKSNFGSEPL [KIF17, Q9P2E2]	below the threshold
HLRARKSEWV [GJD4, Q96KN9]	4.63
TPPAAKKSRI [BAZ1A, Q9NRL2]	below the threshold
VRNLPESEEL [MYOZ3, Q8TDC0]	below the threshold
YRLAQESGLV [ABCC6, O95255]	below the threshold

Could you now look at the following binder, please?
Q) Supply pKd value. Item: QGPVETESVV [SLC45A4, Q5BKX6]
A) 3.59
